target desc: FLT3 (Homo sapiens)
Sequence (P36888 27-993): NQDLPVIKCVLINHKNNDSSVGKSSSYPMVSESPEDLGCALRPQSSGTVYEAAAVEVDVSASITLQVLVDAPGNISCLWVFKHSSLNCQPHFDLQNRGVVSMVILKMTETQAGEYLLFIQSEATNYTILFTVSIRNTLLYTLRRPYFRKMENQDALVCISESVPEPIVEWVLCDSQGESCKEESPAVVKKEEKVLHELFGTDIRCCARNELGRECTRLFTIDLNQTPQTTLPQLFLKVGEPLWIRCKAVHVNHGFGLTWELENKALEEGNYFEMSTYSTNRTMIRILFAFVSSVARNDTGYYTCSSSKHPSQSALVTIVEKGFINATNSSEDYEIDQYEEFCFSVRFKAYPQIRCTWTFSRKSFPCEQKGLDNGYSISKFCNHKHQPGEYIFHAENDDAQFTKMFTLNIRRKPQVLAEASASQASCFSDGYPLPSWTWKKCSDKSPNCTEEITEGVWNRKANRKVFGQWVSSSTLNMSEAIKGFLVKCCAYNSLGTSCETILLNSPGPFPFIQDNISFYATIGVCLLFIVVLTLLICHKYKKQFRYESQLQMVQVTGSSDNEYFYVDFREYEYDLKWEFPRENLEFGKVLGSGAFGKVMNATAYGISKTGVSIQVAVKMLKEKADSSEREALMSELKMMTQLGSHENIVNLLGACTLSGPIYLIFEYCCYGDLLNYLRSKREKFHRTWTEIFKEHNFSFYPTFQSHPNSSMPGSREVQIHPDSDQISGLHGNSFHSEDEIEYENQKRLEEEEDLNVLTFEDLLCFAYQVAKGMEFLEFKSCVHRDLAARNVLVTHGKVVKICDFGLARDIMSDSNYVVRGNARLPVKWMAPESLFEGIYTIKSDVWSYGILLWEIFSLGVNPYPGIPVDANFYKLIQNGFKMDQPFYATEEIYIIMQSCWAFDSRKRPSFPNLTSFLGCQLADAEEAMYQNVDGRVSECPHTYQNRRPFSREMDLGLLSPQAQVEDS
Quick reference: IC50 of the listed items.

Example results:
| molecule | measured value |
| --- | --- |
| COC[C@H](C)Nc1ncc2c(-c3cnn(CC(C)(C)N4CCOCC4)c3)cc([C@H]3CC[C@H](O)CC3)n2n1 | 100 to 1000 nM |
| COC[C@H](C)Nc1ncc2c(-c3cc(C)nc(C)c3)cc([C@H]3CC[C@H](O)CC3)n2n1 | 1000 to 10000 nM |
| COC[C@H](C)Nc1ncc2c(-c3cnn(CC4CC(=O)N(C)C4)c3)cc([C@H]3CC[C@H](O)CC3)n2n1 (stereo partly shown) | 100 to 1000 nM |
| COC[C@H](C)Nc1ncc2c([C@@H]3CCCN(C(C)=O)C3)cc([C@H]3CC[C@H](O)CC3)n2n1 | 1000 to 10000 nM |
| CC(COc1ccccc1)Nc1ncc2c(-c3cnn(C4COC4)c3)cc([C@H]3CC[C@H](O)CC3)n2n1 (mixture of isomers) | 100 to 1000 nM |

Input line: Fill in: IC50 of COCC(C)Nc1ncc2c(-c3ccc4nccn4c3)cc(C3CCC(O)CC3)n2n1 (stereo not shown) is ___
Output line: 1000 to 10000 nM

Input line: Fill in: IC50 of COCC(C)Nc1ncc2c(-c3ccc(C(C)N4CCOCC4)cc3)cc(C3CCC(O)CC3)n2n1 (stereo not shown) [Compound 181] is ___
Output line: ≤ 100 nM
